# Test system: KM20L2 colon
# EXPERIMENT_SUMMARY: NCI tumour cell line growth inhibition, 48 h
ASSAY_METRIC: TGI

Lab book: TGI of O=C1Cc2ccccc2N1c1c(Cl)cccc1Cl noted as > 100 µM

Input S=P1(c2ccccc2)Nc2ccc(Cl)cc2N1 (stereo not drawn) . Output TGI: > 100 µM

# TGI (compound: O=C1CCCC(=O)C1=C(O)CCCCCCCCCCc1ccccc1 ) is > 100 µM

----------
Could you please report measured TGI for the items listed next?
# Tested on: DU-145 prostate
# EXPERIMENT_SUMMARY: NCI tumour cell line growth inhibition, 48 h

Measured TGI of O=c1oc2cccnc2n1CCN1CCN(c2ccc(Oc3ccccc3)cc2)CC1 : > 100 µM

Reported TGI for CC(=O)O[C@H]1[C@H](OC(C)=O)[C@@H](CN=[N+]=[N-])OCO[C@@H]1CN=[N+]=[N-] was > 100 µM

# TGI of C[N+](C)(C)C1(C(=O)[O-])CC1 = > 100 µM

Notebook: Cc1[nH]n(-c2ccc(S(=O)(=O)O)cc2)c(=O)c1N=Nc1ccccc1 , TGI read as > 100 µM

For this compound ( CCn1c(-c2ccccc2)nc2c1C(=O)c1ccccc1C2=O ), measured TGI is > 100 µM

get_value(item= CC(C)=CCc1ccc(O)c(=O)cc1C(C)C , readout=TGI) returns > 100 µM

Lookup result for Cn1c(=O)c2nc3nnc(C#N)c(N)n3c2n(C)c1=O ; measured TGI: > 100 µM

Per the record, COc1cc(Nc2ncc3c(C)nc(-c4cccc(Oc5ccccc5)c4)n3n2)cc(OC)c1OC has TGI of > 25 µM

The compound listed as O/N=C1/CCCCCC1NO (stereo not drawn) has a reported TGI of > 100 µM

Sure, the documented TGI for COc1ccc(C(=O)/C=C/c2ccc(OCC(=O)O)cc2)cc1 is > 100 µM

Lab note: measured TGI of COP(=O)(OC)C(O)/C=C/c1ccco1 (stereo not drawn) was > 100 µM

// COc1ccc(N2CCN(Cc3c(C(C)=O)[n+](=O)c4ccccc4n3[O-])CC2)cc1 : TGI value = > 100 µM

Input C=C(C)[C@@H]1CC[C@]2(C(=O)O)CC[C@]3(C)[C@H](CC[C@@H]4[C@@]5(C)C[C@@H](CC#Cc6ccc(Br)cc6)C(=O)C(C)(C)[C@@H]5CC[C@]43C)[C@@H]12 . Output TGI: > 100 µM
